Overview of recorded pIC50 for various molecules
- Test system: HeLa
- experiment_description: Cytotoxicity against human HeLa3 cell line in presence of ethanethiol by MTT assay
- Type: functional, cell-based
// pIC50: -log10(molar conc.)

Would you please look over these solved cases?
CC1(C)O[C@H]([C@H]2COC(C)(C)O2)[C@@H](C2CC(=O)SS2)O1 (stereo not given in full)
4.77
Cc1cn([C@H]2C[C@H](O[Si](C)(C)C(C)(C)C)[C@@H](C3CC(=O)S[S+]3[O-])O2)c(=O)[nH]c1=O (stereo not given in full)
5.18
O=C1CC([C@H]2O[C@@H](n3ccc(=O)[nH]c3=O)[C@H](O)[C@@H]2O)SS1 (stereo not given in full)
4.68

Lookup: For the molecule shown here, Cc1cn([C@H]2C[C@H](O)[C@@H](C3CC(=O)SS3)O2)c(=O)[nH]c1=O (stereo not given in full) , give the reported pIC50.
Found: 4.26

Lookup: Similarly, O=C1CC([C@H]2O[C@@H](n3ccc(=O)[nH]c3=O)[C@H](O)[C@@H]2O)[S+]([O-])S1 (stereo not given in full) ?
Found: 5.15
